Kd values, listed per item
# system.under.test: Tyrosine-protein kinase Mer (Homo sapiens, UniProt Q12866)
# Sequence (Q12866 whole entry): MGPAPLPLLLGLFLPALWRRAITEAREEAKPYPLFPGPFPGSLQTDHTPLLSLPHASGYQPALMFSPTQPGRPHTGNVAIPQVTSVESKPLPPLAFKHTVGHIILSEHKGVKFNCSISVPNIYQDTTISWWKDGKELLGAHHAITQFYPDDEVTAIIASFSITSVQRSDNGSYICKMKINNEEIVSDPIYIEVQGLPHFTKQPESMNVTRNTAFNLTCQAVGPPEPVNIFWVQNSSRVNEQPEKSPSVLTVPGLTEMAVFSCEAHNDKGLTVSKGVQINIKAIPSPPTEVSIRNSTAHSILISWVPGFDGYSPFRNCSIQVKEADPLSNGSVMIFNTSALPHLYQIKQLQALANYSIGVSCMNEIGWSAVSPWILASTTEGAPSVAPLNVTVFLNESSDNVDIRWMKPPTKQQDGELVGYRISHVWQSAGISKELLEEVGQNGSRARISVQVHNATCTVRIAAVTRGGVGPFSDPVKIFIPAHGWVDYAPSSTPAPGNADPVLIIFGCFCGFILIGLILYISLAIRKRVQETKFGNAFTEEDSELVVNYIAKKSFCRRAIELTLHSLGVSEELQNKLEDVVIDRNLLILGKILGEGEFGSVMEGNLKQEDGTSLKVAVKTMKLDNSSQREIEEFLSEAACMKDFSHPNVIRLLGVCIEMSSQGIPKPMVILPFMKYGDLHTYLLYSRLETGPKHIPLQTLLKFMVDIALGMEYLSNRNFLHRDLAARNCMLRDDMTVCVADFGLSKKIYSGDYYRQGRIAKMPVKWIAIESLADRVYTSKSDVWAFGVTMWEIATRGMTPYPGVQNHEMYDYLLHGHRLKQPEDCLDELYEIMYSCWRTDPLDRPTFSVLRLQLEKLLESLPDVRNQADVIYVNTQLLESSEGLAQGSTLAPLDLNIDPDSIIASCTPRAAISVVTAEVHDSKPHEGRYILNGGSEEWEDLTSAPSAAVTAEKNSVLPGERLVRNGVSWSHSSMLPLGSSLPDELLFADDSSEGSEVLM

In [3]: df
Out[3]:
                                   molecule  readout_value
0  Oc1ccc(-c2nc(-c3ccncc3)c(-c3ccc(F)cc3)[nH]2)cc1 [SB-202190]        > 10 µM
1  CCOc1cc2ncc(C#N)c(Nc3ccc(F)c(Cl)c3)c2cc1NC(=O)/C=C/CN(C)C [PELITINIB]         1.3 µM
2  COCC(=O)NC/C=C/c1ccc2ncnc(Nc3ccc(Oc4ccc(C)nc4)c(C)c3)c2c1 [CP-724714]        > 10 µM

Here is the next item to consider.
Which Kd value belongs to NC(=O)c1ccc(-c2nc(-c3ccc4c(c3)OCO4)c(-c3ccccn3)[nH]2)cc1 [SB-431542] ?
> 10 µM

* * *

# system.under.test: Mitogen-activated protein kinase kinase kinase kinase 1 (Homo sapiens, UniProt Q92918)
# Sequence (Q92918 whole entry): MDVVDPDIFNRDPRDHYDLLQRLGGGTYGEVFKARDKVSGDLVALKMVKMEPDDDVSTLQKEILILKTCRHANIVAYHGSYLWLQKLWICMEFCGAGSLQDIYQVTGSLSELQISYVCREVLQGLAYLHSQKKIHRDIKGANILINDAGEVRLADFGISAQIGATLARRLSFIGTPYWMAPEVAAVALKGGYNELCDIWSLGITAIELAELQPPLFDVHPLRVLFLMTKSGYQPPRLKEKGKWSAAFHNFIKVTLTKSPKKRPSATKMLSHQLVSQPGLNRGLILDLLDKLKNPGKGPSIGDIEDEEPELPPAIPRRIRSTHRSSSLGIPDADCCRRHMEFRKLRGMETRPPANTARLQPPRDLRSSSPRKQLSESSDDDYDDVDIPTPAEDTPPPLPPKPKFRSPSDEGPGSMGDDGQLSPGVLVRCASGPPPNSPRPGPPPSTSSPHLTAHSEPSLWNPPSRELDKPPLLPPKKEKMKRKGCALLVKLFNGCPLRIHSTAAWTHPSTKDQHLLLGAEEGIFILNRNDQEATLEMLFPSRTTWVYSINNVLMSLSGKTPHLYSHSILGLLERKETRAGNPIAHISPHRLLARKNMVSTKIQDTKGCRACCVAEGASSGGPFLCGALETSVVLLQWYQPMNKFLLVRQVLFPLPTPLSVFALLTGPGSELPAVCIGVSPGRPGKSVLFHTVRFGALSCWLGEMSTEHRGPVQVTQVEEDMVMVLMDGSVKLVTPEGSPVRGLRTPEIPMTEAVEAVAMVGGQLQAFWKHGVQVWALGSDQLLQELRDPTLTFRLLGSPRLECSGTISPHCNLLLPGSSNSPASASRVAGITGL
metric.name: Kd

Examples with their reported Kd follow.
In [3]: df
Out[3]:
                                test_smiles  readout_value
0  Oc1ccc(-c2nc(-c3ccncc3)c(-c3ccc(F)cc3)[nH]2)cc1        > 10 µM
1  NC(=O)c1ccc(-c2nc(-c3ccc4c(c3)OCO4)c(-c3ccccn3)[nH]2)cc1        > 10 µM

Which Kd value belongs to COCC(=O)NC/C=C/c1ccc2ncnc(Nc3ccc(Oc4ccc(C)nc4)c(C)c3)c2c1 ?
> 10 µM

Another: Nc1nc(Nc2ccc(S(N)(=O)=O)cc2)nn1C(=O)c1c(F)cccc1F
0.12 µM
